Where do the numbers come from? From the supplement of paper PMC10567573.

B1: ADD1 (parent)
chain: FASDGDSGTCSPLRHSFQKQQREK

variants of: B1; assay: protein stability index of a GFP-peptide fusion (GPS, HEK-293T) (PSI 1-6); higher = more stable; settings: c terminus: a fixed tail appended;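 further: lentivirally expressed fusions sorted by FACS into six bins by GFP to DsRed ratio, PSI derived from sequencing read proportions per bin multiplied by bin number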
Outcome: Satisfied for protein stability index of at least 4; Not satisfied for anything lower.

IN: Check if protein stability index >= 4 (inclusive). Item: FASNGDSGTCSPLRHSFQKQQREK [D4N]
OUT: Not satisfied

IN: Determine whether measured protein stability index meets or exceeds 4 for FASDGDSGTCSPLRFSFQKQQREK [H15F]
OUT: Not satisfied

IN: Assess whether reported protein stability index for FASDGDKGTCSPLRHSFQKQQREK [S7K] sits at 4 or higher.
OUT: Not satisfied

IN: Hi team, for FASDGDSGTCSPLRHSFQKQQQEK [R22Q] , is the recorded protein stability index at or above 4?
OUT: Not satisfied

IN: Kindly determine if protein stability index recorded for FASDGDSGTCSPLRHSFQKQQAEK [R22A] is above or exactly 4.
OUT: Not satisfied

IN: Reported protein stability index at or above 4? FASDGDSGTCSPLRHSFWKQQREK [Q18W]
OUT: Not satisfied

IN: Is the recorded value of protein stability index equal to or greater than 4 for this variant? FASDGDTGTCSPLRHSFQKQQREK [S7T]
OUT: Not satisfied

IN: Would you say FASDGDSGFCSPLRHSFQKQQREK [T9F] shows protein stability index at minimum 4?
OUT: Not satisfied

IN: Hello, I need to know if FASDGDDGTCSPLRHSFQKQQREK [S7D] has measured protein stability index not below 4. Thanks!
OUT: Satisfied

IN: Kindly determine if protein stability index recorded for FASDGDSGTCSPLRHSFQRQQREK [K19R] is above or exactly 4.
OUT: Not satisfied

IN: Item FASDGDSGTCCPLRHSFQKQQREK [S11C] with protein stability index of 4 or above?
OUT: Not satisfied

IN: Please tell me: is the variant FASDGDSGTCSPLRHSFQKQQREA [K24A] at or over 4 in terms of protein stability index?
OUT: Not satisfied

IN: // inclusive: protein stability index at least 4? input: FASDGDMGTCSPLRHSFQKQQREK [S7M]
OUT: Not satisfied

IN: Say whether FASDGDSGTCSPLDHSFQKQQREK [R14D] shows protein stability index of 4 or more.
OUT: Satisfied

IN: Given the entry FASDGDSGTCSPLRHSFQKDQREK [Q20D] , answer whether its protein stability index meets or surpasses 4.
OUT: Satisfied

IN: Threshold query (protein stability index >= 4) on FASDGDSGTCSPLRHLFQKQQREK [S16L]
OUT: Not satisfied

IN: Item FASDGDSGTCSILRHSFQKQQREK [P12I] with protein stability index of 4 or above?
OUT: Not satisfied

IN: API: above_or_equal(metric=protein stability index, cutoff=4) for item FASDGDSGTCSPLRSSFQKQQREK [H15S]
OUT: Satisfied

IN: Check the entry FASDGDSGTCSPLRHSFQKVQREK [Q20V] : does protein stability index equal or exceed 4?
OUT: Not satisfied

IN: Is protein stability index for FASDGDSGTCSPLRVSFQKQQREK [H15V] at or above 4?
OUT: Not satisfied

IN: Tell me whether protein stability index is at least 4 here: FACDGDSGTCSPLRHSFQKQQREK [S3C]
OUT: Not satisfied

IN: Kindly determine if protein stability index recorded for FASDGDSGDCSPLRHSFQKQQREK [T9D] is above or exactly 4.
OUT: Satisfied

IN: // inclusive: protein stability index at least 4? input: FASDGDSGTCSPLRHSFQKQQREI [K24I]
OUT: Not satisfied

IN: Has FASDGDSGTCSPLRHSFLKQQREK [Q18L] a recorded protein stability index greater than or equal to 4?
OUT: Not satisfied

IN: Hello, I need to know if FASDGDSGTCSPLRHSHQKQQREK [F17H] has measured protein stability index not below 4. Thanks!
OUT: Not satisfied

IN: I'd appreciate it if you could say whether FASDGDSGTCQPLRHSFQKQQREK [S11Q] has protein stability index at least equal to 4.
OUT: Satisfied

IN: Quick check, protein stability index >= 4? FASDGDSHTCSPLRHSFQKQQREK [G8H]
OUT: Not satisfied

IN: hey, is protein stability index for this one >= 4? FASDGYSGTCSPLRHSFQKQQREK [D6Y]
OUT: Not satisfied
